This listing pairs compounds with measured normalized growth.
protocol description: chemical genetic growth profiling, strain panel (AID 1159580);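 also: tested at 20 µM; growth read once vehicle control cultures reached saturation at 30 °C; 1 = growth at the plate median or of vehicle wells; lower values mean less growth of the strain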
conditions used: S. cerevisiae deletion strains, growth OD, locus YGL086W, strain mad1, hits give low values
Screen size: about 5,500 compounds; about 2,000 (36%) were called active. About 18% were inconclusive and are not listed. The list shows a part of the results.

>  <compound>
C=C1c2cccc(O)c2C(O)=C2C(=O)[C@]3(O)C(O)=C(C(N)=O)C(=O)[C@@H](N(C)C)[C@@H]3[C@@H](O)[C@H]12

>  <normalized growth>
0.993

$$$$
>  <compound>
CC(=O)O[C@@H]1CC[C@@]2(C)C(C[C@@H](OC(C)=O)[C@@]3(C)C4=CC(=O)O[C@@H](c5ccoc5)[C@]4(C)CCC23)C1(C)C (stereo partly drawn)

>  <normalized growth>
1.02

$$$$
>  <compound>
NC(=O)NC(=O)Cc1ccccc1

>  <normalized growth>
0.995

$$$$
>  <compound>
CC(C)CCCC(C)C1CCC2C3C[C@@H](O)[C@@]4(O)C[C@@H](O)CC[C@]4(C)C3CC[C@]12C (stereo partly drawn)

>  <normalized growth>
1.01

$$$$
>  <compound>
CO[C@H]1CC(O[C@@H]2/C(C)=C/C[C@@H]3C[C@@H](C[C@]4(CC[C@H](C)[C@@H](C5CCCCC5)O4)O3)OC(=O)[C@@H]3C=C(C)/C(=N\O)[C@H]4OC/C(=C\C=C\[C@@H]2C)[C@]43O)O[C@@H](C)C1O (stereo partly drawn)

>  <normalized growth>
1.01

$$$$
>  <compound>
COc1c(C)c2c(c(C)c1Cl)Oc1c(Cl)c(OC)c(Cl)c(C)c1C(=O)O2

>  <normalized growth>
1.02

$$$$
>  <compound>
CC(=O)OCC(=O)[C@@]1(O)[C@H](C)CC2C3CCC4=CC(=O)C=C[C@]4(C)[C@@]3(F)[C@@H](O)C[C@@]21C (stereo partly drawn)

>  <normalized growth>
1

$$$$
>  <compound>
CCOC(=O)NNc1nncc2ccccc12

>  <normalized growth>
0.995

$$$$
>  <compound>
CC(=O)Oc1c(Cl)c(C)c2c(c1Cl)OC(=O)c1c(C)c(Cl)c(OC(C)=O)c(Cl)c1O2

>  <normalized growth>
0.899

$$$$
>  <compound>
C=C1C[C@]23C[C@@]1(O)CC[C@H]2[C@@]12C=C[C@H](O)[C@@](C)(C(=O)O1)[C@H]2[C@@H]3C(=O)O

>  <normalized growth>
1.01

$$$$
>  <compound>
CC(=O)O[C@H]1CC[C@@]2(C)C(=CC(=O)C3C4CCC(C(C)CCCC(C)C)[C@@]4(C)CCC32)C1 (stereo partly drawn)

>  <normalized growth>
1.01

$$$$
>  <compound>
Oc1cccc(O)c1

>  <normalized growth>
0.994

$$$$
>  <compound>
CC(C)CCCC(C)[C@H]1CCC2C3CC[C@@H]4C[C@H](O)CC[C@]4(C)C3CC[C@@]21C (stereo partly drawn)

>  <normalized growth>
1

$$$$
>  <compound>
N=C(N)N

>  <normalized growth>
1.01

$$$$
>  <compound>
CC(=O)O[C@H]1CCC2(C)C3=C(CCC2C1(C)C)[C@@]1(C)CC[C@@H](C(C)CCC=C(C)C)[C@]1(C)CC3 (stereo partly drawn)

>  <normalized growth>
1.02

$$$$
>  <compound>
CC(=O)c1cc(CC=C(C)C)c(O)c(CC=C(C)C)c1

>  <normalized growth>
0.953

$$$$
>  <compound>
CC(C)=CCc1c2c(c3occ(-c4ccc(O)c(O)c4)c(=O)c3c1O)C=CC(C)(C)O2

>  <normalized growth>
0.67

$$$$
>  <compound>
CC(C)CCCC(C)[C@H]1CCC2C3CC=C4C[C@@H](O)CC[C@]4(C)C3CC[C@@]21C (stereo partly drawn)

>  <normalized growth>
0.991

$$$$
>  <compound>
CC(=O)Oc1ccc(/C=C/c2cc(OC(C)=O)cc(OC(C)=O)c2)cc1

>  <normalized growth>
0.994

$$$$
>  <compound>
C[n+]1ccccc1/C=N/O

>  <normalized growth>
1.01

$$$$
>  <compound>
C=C1c2c(Cl)ccc(O)c2C(O)=C2C(=O)[C@]3(O)C(O)=C(C(N)=O)C(=O)[C@@H](N(C)C)[C@@H]3[C@@H](O)[C@H]12

>  <normalized growth>
0.964

$$$$
>  <compound>
CCC(C)[C@H]1O[C@]2(C=C[C@@H]1C)C[C@@H]1C[C@@H](C/C=C(\C)[C@@H](OC3C[C@H](OC)C(O[C@H]4C[C@H](OC)[C@@H](O)[C@H](C)O4)[C@H](C)O3)[C@@H](C)/C=C/C=C3\CO[C@@H]4[C@H](O)C(C)=C[C@@H](C(=O)O1)[C@]34O)O2 (stereo partly drawn)

>  <normalized growth>
0.8

$$$$
>  <compound>
COC(=O)c1c(OC)cc2c(c1C)Oc1c(Cl)c(O)c(Cl)c(C)c1C(=O)O2

>  <normalized growth>
0.954

$$$$
>  <compound>
CC(C)CCCC(C)C1CCC2C3=CC[C@H]4C[C@@H](O)CC[C@]4(C)C3CC[C@@]21C (stereo partly drawn)

>  <normalized growth>
0.996

$$$$
>  <compound>
COC(=O)/C(=C1\OC(=O)C(c2ccccc2)=C1O)c1ccccc1

>  <normalized growth>
1.01

$$$$
>  <compound>
CC(=O)c1ccc(O)c(CC=C(C)C)c1

>  <normalized growth>
0.972

$$$$
>  <compound>
CC(Cc1cccc(C(F)(F)F)c1)NCCOC(=O)c1ccccc1 (stereo not drawn)

>  <normalized growth>
0.953

$$$$
>  <compound>
CC(=O)Oc1ccc(C(c2ccc(OC(C)=O)cc2)c2ccccn2)cc1

>  <normalized growth>
0.982

$$$$
